All figures here come from paper PMC7887213.

Molecular target: T1, Ac-[residues removed]-NH2 (NPNA6 peptide) (Plasmodium falciparum (synthetic CSP …))
T1 construct: also called 24-mer peptide; source: synthetic peptide; bought: Innopep Inc
Test: ITC; peptide in the syringe, Fab (~10 uM) in the cell; DPBS, 25 °C; single-site binding model; triplicate, mean ± SD; No. of sites = peptide per Fab
Settings: both partners purified
Decision: stoichiometry N >= 0.4 yields criterion met, all other cases yield criterion not met.

- Binder: "Fab356 (Fab, V domains shown, also called mAb356; source: ExpiCHO cells, purified (HiTrap Protein G, SEC)) VH: VQLVESGGGVVQPGRSLRLSCAASGFTFRNFGMHWVRQTPGKGLEWVAVIWHDGSNKFYADSVEGRFTISRDNSKNMIYLQMNSLRVEDTAIYYCARDSLFYDHDNSGYYGYWGQGTLVTVSS VL: QIVMTQSPATVSVSPGERATLSCRASRSVTSKLAWYQQKPGQAPRLLIYGASTRATGIPARFSGSGSGTEFTLTISSLQSEDFAVYFCQQYNNGFTFGPGTKVDFK"
  Category label: "criterion not met"
- Binder: "Fab395 (Fab, V domains shown, also called mAb395; source: ExpiCHO cells, purified (HiTrap Protein G, SEC)) VH: QEQLVESGGGVVQPGRSLRLSCAAASEFCFSCYGMHWVRQAPGKGLEWVAVIWHDGSNQHFADSVKGRFTISRDNSKNIMYLQMNSLRAEDTAVYYCASATRYDILTGAFDYWGQGTLVTVSS VL: DIQMTQSPSTLSASVGDRVTITCRASQSISTWLAWYQQKPGKAPKLLIYKASSLESGVPSRFSGSGSGTEFTLTISSLQPDDFATYYCQQYSRYWTFGQGTKVEIK"
  Category label: "criterion met"
- Binder: "Fab311 (Fab, V domains shown, also called mAb311; source: ExpiCHO cells, purified (HiTrap Protein G, SEC)) VH: EVQLVESGGGVVPPGRSLRLSCATSGFTFSNYGMHWVRQAPGKGLEWVAIIWYDGSRNFYAASVEGRFTISRDNSKNTLYLQMNSLRVEDTAVYYCARAAYYDTSGYGDYWGQGTLVTVSS VL: ESVLTQPPSVSGAPGQTVTISCTGGSSNIGAGYDVHWYQQLPGTAPKLLIYGNINRPSGVPDRFSGSKSGTSASLAITGLQAEDEADYYCQSYDRRLSGSWVFGGGTKLTVL"
  Category label: "criterion not met"
- Binder: "Fab239 (Fab, V domains shown, also called mAb239; source: ExpiCHO cells, purified (HiTrap Protein G, SEC)) VH: QVQLVESGGGVVQPGRSLRLSCAASRLTFRNFGMHWVRQTPGKGLEWVAVIWHDGSNKFYADSVEGRFTISRDNSKNTLYLQMNSLRDEDTAIYYCAKDWGGASDRVFDYWGRGTLVIVSS VL: DIQMTQSPSTLSASVGDRVTITCRASQSVSTSLAWYQQKPGKAPNLLIYQASTLYRGVPSRFSGSGSGTEFTLTIGSLQPDDFATYYCQHYNSYSRITFGQGTRLEIK"
  Category label: "criterion not met"
- Binder: "Fab364 (Fab, V domains shown, also called mAb364; source: ExpiCHO cells, purified (HiTrap Protein G, SEC)) VH: QVQLVESGGGVVQPGGSLRLSCAASGFTFSGYGMHWVRQVPGKGLEWVAIIWFDGSQKYYADSVQGRFTISRDNSKKTLFLRMNSLRAEDTAVYYCAKVHDDEPTQDYWGQGTLVTVSS VL: DIQMTQSPSTLSASVGDRVTITCRASQGISTSLAWYQQKPGKAPKLLIYKASSLESGVPSRFSGSGSGTEFTLTITSLQPEDFATYYCQQYKRYWTFGQGTKVEIK"
  Category label: "criterion met"
- Binder: "Fab224 (Fab, V domains shown, also called mAb224; source: ExpiCHO cells, purified (HiTrap Protein G, SEC)) VH: EVQLVESGGGLVQPGRSLRLPCTASGFSFGDHAMSWVRQAPGKGLEWVGFIRKTTYGATTHYAAAVRGRFTISRDDSKSIVYLQMNSLKTEDTAVYFCTRVQLDYGPGYQYYGMDVWGQGTTVTVSS VL: ESVLTQPPSVSGAPGQRVTISCTGMNSNIGAGYDVYWYQQLPGRAPKLLIYGNSNRPSGVPDRFSGSRSGTSASLAITGLQAEDEADYYCQSYDTSLNGWAFGGGTKLTVL"
  Category label: "criterion met"

Task: Check this binder for stoichiometry N at or above 0.4: Fab399 (Fab, V domains shown, also called mAb399; source: ExpiCHO cells, purified (HiTrap Protein G, SEC)) VH: EVQLVESGGGLVQPGRSLRLSCTTSGFTFGDYAMSWFRQAPGKGLEWVGFIRSKGFGGTAEYAAFVKGRFTISRDDSRSIAYLQMTSLKPEDTAVYYCSRVGVVIATAVYWGQGTLVTVSS VL: DILMTQTPLSLSVTPGQPASISCKSSQSLLDNDGKTYLYWYLQKPGQSPQLLIYEVSNRFSGVPERFSGSGSGTDFTLKIRRVEAEDVGVYYCMQRIDLPWTFGQGTKVEIK
Output: criterion met

Task: Check this binder for stoichiometry N at or above 0.4: Fab317 (Fab, V domains shown, also called mAb317; source: ExpiCHO cells, purified (HiTrap Protein G, SEC)) VH: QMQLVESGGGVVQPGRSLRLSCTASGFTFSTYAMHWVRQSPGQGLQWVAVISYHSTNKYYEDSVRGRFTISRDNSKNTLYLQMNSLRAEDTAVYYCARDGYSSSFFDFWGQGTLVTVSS VL: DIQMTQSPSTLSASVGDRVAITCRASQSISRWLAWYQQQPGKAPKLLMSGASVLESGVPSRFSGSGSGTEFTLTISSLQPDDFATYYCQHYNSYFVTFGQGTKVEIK
Output: criterion met

Task: Check this binder for stoichiometry N at or above 0.4: Fab366 (Fab, V domains shown, also called mAb366; source: ExpiCHO cells, purified (HiTrap Protein G, SEC)) VH: QVQLVQSGAEVKKPGASARVSCKASGYTLTDFYLHWVRQAPGQGLEWMGWLNPHSGGTNYAQKFLGRVSMTRDTSISTAYMELNKLISDDTAVYFCVRSDQEALRGAFDIWGQGTMVFVSS VL: DIQMTQSPSSLSASVGDTVTITCRASQSINDYLNWYQQKPGKAPKLLIYATSSLHSGVPSRFSGSGFGTDFTLTISSLQPEDSATYLCQQSHSLWTFGQGTKVEVK
Output: criterion met

Task: Check this binder for stoichiometry N at or above 0.4: Fab397 (Fab, V domains shown, also called mAb397; source: ExpiCHO cells, purified (HiTrap Protein G, SEC)) VH: EVQLVKSGGGLVKPGGSLRLSCAVSGFTFTDAWMSWVRQAPGKGPEWVGRIKSNPDGGTTDYAAPVRGRFTISRDDSKNTLYLQMNNLKTEDTAVYYCITDRDFYRSGGSWGQGTLVTV VL: DIVMTQSPLSLPVTPGEPASISCRSRQSLLYSNGDNYLDWYLQKPGQSPQLLIYLGSNRAPGVPDRFSGSGSGTDFTLKISRVEAEDVGVYYCMQTLQTPHTFGQGTKLEIK
Output: criterion met
